# Test system: MDR1
# method_description: MDCK-MDR1 permeability assay
# Type: in vitro ADME
# measurement_conditions: dog, MDCK-MDR1, Papp (basolateral to apical) divided by Papp (apical to basolateral), MDCK-MDR1 cells, 3 μM; read-out: Efflux ratio (ER)
measure_name: efflux ratio at 2 h, 3 μM

Observe how each entry below is paired with its result.
- compound: "CS(=O)(=O)N[C@@H]1CCCN2C(=O)COc3cccc(F)c3[C@H]3CC[C@H](CC3)OC[C@H]12 (racemic) [Compound 49]"
  efflux ratio at 2 h, 3 μM: 36
- compound: "CS(=O)(=O)N[C@@H]1CCCN2C(=O)COc3cccnc3[C@H]3CC[C@H](CC3)OC[C@H]12 (racemic) [Compound 15]"
  efflux ratio at 2 h, 3 μM: 22
- compound: "[2H]C1([2H])COc2ccccc2C2CCC(CC2)OCC2[C@@H](NS(C)(=O)=O)CCCN21 (stereo partly shown) [Compound 60]"
  efflux ratio at 2 h, 3 μM: 1.4
- compound: "CS(=O)(=O)N[C@H]1CCCN2C(=O)COc3ncccc3C3CCC(CC3)OCC12 (stereo partly shown) [Compound 46]"
  efflux ratio at 2 h, 3 μM: 58
- compound: "CS(=O)(=O)N[C@H]1CCCN2CCOc3ccc(Cl)cc3C3CCC(CC3)OCC12 (stereo partly shown) [Compound 61]"
  efflux ratio at 2 h, 3 μM: 5.5

a: COC(=O)N1CCC[C@H](NS(C)(=O)=O)[C@@H]1CO[C@H]1CC[C@@H](c2ccccc2)CC1 [reference compound]
b: CS(=O)(=O)N[C@H]1CCCN2CCOc3c(F)cccc3C3CCC(CC3)OCC12 (stereo partly shown) [Compound 13]
# input Would you mind telling me which has the lower recorded efflux ratio at 2 h, 3 μM between a and b ? Your choice should be expressed through its label.
# output b
(b: 0.55, a: 4)
